Value source: the RNAGym collection of RNA variant scans (doi:10.1093/nar/gkz1192)

B1: CPEB3 Ribozyme (parent)
chain: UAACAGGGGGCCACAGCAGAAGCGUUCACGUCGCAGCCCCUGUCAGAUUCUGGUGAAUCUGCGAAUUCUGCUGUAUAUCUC

Variants of: B1
METHOD NOTES: self-cleavage, relative activity (ratio to wild type); higher = more cleavage; in vitro, sequencing
# binarize self-cleavage: threshold 0.6 inclusive, high side 1.0, low side 0.0

Some solved entries appear below for comparison.
CHANGES	QUALITATIVE LABEL
G7U C50A	0.0
G33A G63U	0.0
C40A A45U	0.0
U1C A2G	1.0
G8U U54C	0.0
C4A U26C	1.0
U1A C68U	1.0
G16C A35G	1.0

Given the entry G30A U80A , answer whether its self-cleavage meets or surpasses 0.6.
0.0

Given the entry A28G C38U , answer whether its self-cleavage meets or surpasses 0.6.
0.0

Given the entry C17G A65G , answer whether its self-cleavage meets or surpasses 0.6.
0.0

Given the entry U31C C62U , answer whether its self-cleavage meets or surpasses 0.6.
0.0

Given the entry G8U C38U , answer whether its self-cleavage meets or surpasses 0.6.
0.0
